organism: Rattus norvegicus; test: Open TG-GATES - Regimen: Single; assay type: toxicity, organism-based, Sprague-Dawley; parameters: regimen Single, gender Male, age 6 weeks; conditions: in vivo, po, 0 mg/kg, 3 h, tissue Plasma, route gavage, dose level Control
measurement_kind: AST (IU/L)
The answer is to be given in IU/L; state only the numeric part.

Recorded AST, per entry:
compound: CC(S)C(=O)NCC(=O)O (stereo not drawn)
measurement_kind: AST
recorded_number: 80.4
--
compound: CN(CCOc1ccc(CC2SC(=O)NC2=O)cc1)c1ccccn1.O=C(O)/C=C\C(=O)O (stereo not drawn) [ROSIGLITAZONE MALEATE]
measurement_kind: AST
recorded_number: 71
--
compound: COc1ccc([C@@H]2Sc3ccccc3N(CCN(C)C)C(=O)[C@@H]2OC(C)=O)cc1
measurement_kind: AST
recorded_number: 75.4

I have this compound here, NS(=O)(=O)c1cc(C(=O)O)c(NCc2ccco2)cc1Cl [FUROSEMIDE] , and I need its recorded AST.
76.2

Entry COc1cc2ncnc(Nc3ccc(F)c(Cl)c3)c2cc1OCCCN1CCOCC1 : reported AST = ?
73.2

Give the measured AST of CC(=O)[C@@]1(O)CC[C@H]2[C@@H]3C=C(Cl)C4=CC(=O)CC[C@]4(C)[C@H]3CC[C@@]21C .
77.8

What value of measured AST is listed for O=C(O)c1ccccc1Nc1ccccc1 ?
75

What measured AST goes with CCCCNC(=O)NS(=O)(=O)c1ccc(C)cc1 [TOLBUTAMIDE] ?
73.6

I have this compound here, O=c1ccc2ccccc2o1 , and I need its recorded AST.
69.4

These measurements were taken from ChEMBL document CHEMBL3885861.
